- test.name: biodistribution of radioactivity 40 h after intracerebral injection in 9L gliosarcoma-bearing and sham-operated rats
- settings: rat, right brain
readout.name: tissue uptake at 40 h (%ID/g)
The reply should be a number in %ID/g, with the unit left off.

Which tissue uptake at 40 h is reported for this molecule? O=c1[nH]c(=O)n([C@H]2C[C@H](O)[C@@H](CO)O2)cc1[123I] [^123 IUdR, 5-[^123 I/^125 I]iodo-2'-deoxyuridine]
0.36
